Target: KRAS-G12V/RAF1 (Homo sapiens (Human), UniProt P01116, G12V)
Sequence (P01116-2 other isoform, or with tags, fused parts or gaps G12V): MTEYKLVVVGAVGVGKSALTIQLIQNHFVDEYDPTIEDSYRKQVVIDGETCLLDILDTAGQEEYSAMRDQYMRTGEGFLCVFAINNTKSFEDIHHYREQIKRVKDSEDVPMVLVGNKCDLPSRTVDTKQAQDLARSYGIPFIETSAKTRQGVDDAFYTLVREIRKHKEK
Test: KRAS/RAF1 binding inhibition assay (AlphaScreen)
Reported endpoint: IC50

Look up IC50: `C[C@@]1(O)CCCN(c2nc(OCC3(CN4CC5(CCC(F)(CN6CCN(c7ccc8c(c7)CN([C@H]7CCC(=O)NC7=O)C8=O)CC6)CC5)C4)CC3)nc3c(F)c(-c4cc(O)cc5ccc(F)c(F)c45)ncc23)C1`
> 200 nM

Look up IC50: `CCc1cccc2cc(O)cc(-c3ncc4c(N5CCNC(=O)CC5)nc(OCC5(CN6CCC7(CC6)CC(CN6CCN(c8ccc9c(c8)CN([C@H]8CCC(=O)NC8=O)C9=O)CC6)C7)CC5)nc4c3F)c12`
> 200 nM

Look up IC50: `CCc1c(F)ccc2cc(O)cc(-c3ncc4c(N5CCC[C@@](C)(O)C5)nc(OCC5(CN6CC(CN7CCC(N8CCN(c9ccc%10c(c9)CN([C@H]9CCC(=O)NC9=O)C%10=O)CC8)CC7)C6)CC5)nc4c3F)c12`
20 to 200 nM

Look up IC50: `CCc1c(F)ccc2cc(N)cc(-c3ncc4c(N5CCC[C@@](C)(O)C5)nc(OCC5(CN6CCC7(CC6)CC(CN6CCN(c8ccc9c(c8)CN([C@H]8CCC(=O)NC8=O)C9=O)CC6)C7)CC5)nc4c3F)c12`
> 200 nM

Look up IC50: CCc1cccc2cc(O)cc(-c3ncc4c(N5CCC[C@@](C)(O)C5)nc(OCC5(CN6CCC(OC7CCN(c8ccc9c(c8)CN(C8CCC(=O)NC8=O)C9=O)CC7)CC6)CC5)nc4c3F)c12 (some centres unmarked)
20 to 200 nM
